These entries and their values trace back to ChEMBL document CHEMBL1255568.

Property: IC50; scope: individual compounds
system: MDA-MB-231; assay: Antiproliferative activity against human MDA-MB-231 cells after 72 hrs by colorimetric tetrazolium assay; assay type: functional, cell-based; conditions: MDA-MB-231, 72 h

Illustrative cases are given below, each with its answer.
compound_structure=CC(C)=CCn1cc(CN2CCCCC2)c2cc(-c3cccc(C)c3)ccc21 result="3.9 µM"
compound_structure=CCCCCCCCn1cc(CNS(C)(=O)=O)c2cc(-c3cccc(C)c3)ccc21 result="17.5 µM"
compound_structure=CCCCCCCCn1cc(CNC(C)=O)c2cc(-c3cccc(C)c3)ccc21 result="30 µM"

Challenge: Given the entry CCCCCCCCn1cc(CC(N)=O)c2cc(-c3cccc(OC)c3)ccc21 , report its measured IC50.
Response given: 22.4 µM

Challenge: Next up: CCCCCCCCn1cc(CN(CC)CC)c2cc(-c3cccc(C)c3)ccc21
Response given: 3.6 µM

====

target: Protein-S-isoprenylcysteine O-methyltransferase (Homo sapiens, UniProt O60725); experiment: Inhibition of recombinant ICMT expressed in Sf9 cells using [3H] AdoMet after 20 mins by scintillation counting
Sequence (O60725 whole entry): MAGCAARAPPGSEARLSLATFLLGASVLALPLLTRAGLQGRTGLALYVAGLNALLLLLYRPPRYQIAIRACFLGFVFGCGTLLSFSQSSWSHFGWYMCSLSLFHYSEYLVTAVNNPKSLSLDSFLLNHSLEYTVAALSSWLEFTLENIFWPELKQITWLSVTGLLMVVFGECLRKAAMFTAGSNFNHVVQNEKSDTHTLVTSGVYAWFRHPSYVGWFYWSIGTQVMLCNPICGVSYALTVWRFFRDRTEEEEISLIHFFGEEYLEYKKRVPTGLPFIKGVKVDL
metric_name: IC50 (nM)
Note: unit nM is implicit; provide only the numeric part.

Illustrative cases are given below, each with its answer.
compound_structure=CCCCCCCCn1cc(CC(N)=O)c2cc(-c3ccccc3)ccc21 quantitative_result=1800
compound_structure=CCN(CC)Cc1cn(CC=C(C)C)c2ccccc12 quantitative_result=67000
compound_structure=CCCCCCCCn1cc(CC(=O)N2CCCC2)c2cc(-c3cccc(C)c3)ccc21 quantitative_result=1200
compound_structure=CCCCCCCCn1cc(CN)c2cc(-c3cccc(C)c3)ccc21 quantitative_result=700
compound_structure=CCCCCCCCn1cc(CN2CCCCC2)c2cc(-c3cccc(C)c3)ccc21 quantitative_result=700

With those in mind, consider the next compound.
Challenge: Given the entry CCN(CC)Cc1cn(CC=C(C)C)c2ccc(F)cc12 , report its measured IC50.
Response given: 35000

====

target: Protein-S-isoprenylcysteine O-methyltransferase (Homo sapiens, UniProt O60725); test: Inhibition of recombinant ICMT expressed in Sf9 cells using [3H] AdoMet after 20 mins by scintillation counting
metric_name: IC50
Remember to follow the number with its unit.

Illustrative cases are given below, each with its answer.
compound_structure=CCCCCCCCn1cc(CN(CC)CC)c2cc(-c3ccc(C)cc3)ccc21 result="600 nM"
compound_structure=CCCCCCCCn1cc(CN(C(C)C)C(C)C)c2cc(-c3cccc(C)c3)ccc21 result="1700 nM"
compound_structure=CC(C)=CCn1cc(CC(N)=O)c2cc(-c3cccc(C)c3)ccc21 result="7700 nM"

Challenge: Given the entry CCCCCCCCn1cc(CN(CC)CC)c2cc(F)ccc21 , report its measured IC50.
Response given: 4100 nM

Challenge: Next up: CCCCCCCCn1cc(CC(N)=O)c2cc(-c3cccc(OC)c3)ccc21
Response given: 1900 nM

Challenge: Next up: CCCCCCCCn1cc(CN(C)C(C)C)c2cc(-c3cccc(C)c3)ccc21
Response given: 900 nM

Challenge: Next up: CCCCCCCCn1cc(CC(N)=O)c2cc(-c3ccc(C)cc3)ccc21
Response given: 1000 nM

====

system: MDA-MB-231; experiment: Antiproliferative activity against human MDA-MB-231 cells after 72 hrs by colorimetric tetrazolium assay; format: functional, cell-based; details: MDA-MB-231, 72 h
metric_name: IC50

compound_structure=CCCCCCCCn1ccc2cc(-c3cccc(C)c3)ccc21 metric_name=IC50 result="> 100 µM"

Challenge: Given the entry CCCCCCCCn1cc(CC(=O)N(CC)CC)c2cc(-c3cccc(OC)c3)ccc21 , report its measured IC50.
Response given: 52 µM

Challenge: Next up: CCCCCCCCn1cc(CC(=O)N(CC)CC)c2cc(-c3cccc(OCC)c3)ccc21
Response given: 26.8 µM

Challenge: Next up: CCCCCCCCn1cc(CC(N)=O)c2cc(-c3cccc(OCC)c3)ccc21
Response given: 18.7 µM
